MIC by entry:
- Tested on: Escherichia coli
- method-summary: Antimicrobial activity against Escherichia coli JM109 by two-fold serial dilution technique
- Format: functional
// units = µg/mL; emit number, no label

Exercise: // query MIC value for entry Cc1cc(=O)oc2cc(OCC3CO3)ccc12 (stereo not drawn)
Key: 0.5

Exercise: // query MIC value for entry Cc1cc(=O)oc2cc(OCC3CO3)cc(OCC3CO3)c12 (stereo not drawn)
Key: 0.5

Kindly consider the entry below.
Exercise: // query MIC value for entry Cc1cc(=O)oc2cc(OCC(O)Cn3nnc4ccccc43)ccc12 (stereo not drawn)
Key: 16

----------
MIC by entry:
- Tested on: Shigella dysenteriae
- method-summary: Antimicrobial activity against Shigella dysenteriae by two-fold serial dilution technique
- Assay type: functional
// units = µg/mL; emit number, no label

Exercise: // query MIC value for entry Cc1cc(=O)oc2cc(OCC(O)Cn3nnc4ccccc43)c(OCC(O)Cn3nnc4ccccc43)cc12 (stereo not drawn)
Key: 64

Others:
Exercise: // query MIC value for entry Cc1cc2ncn(CC(O)COc3ccc4c(C)cc(=O)oc4c3)c2cc1C (stereo not drawn)
Key: 64
